tested system: Pseudomonas aeruginosa LpxC enzyme (Pseudomonas aeruginosa, UniProt P47205)
Construct: made in house; host or cells: E. coli
Sequence (P47205 whole entry): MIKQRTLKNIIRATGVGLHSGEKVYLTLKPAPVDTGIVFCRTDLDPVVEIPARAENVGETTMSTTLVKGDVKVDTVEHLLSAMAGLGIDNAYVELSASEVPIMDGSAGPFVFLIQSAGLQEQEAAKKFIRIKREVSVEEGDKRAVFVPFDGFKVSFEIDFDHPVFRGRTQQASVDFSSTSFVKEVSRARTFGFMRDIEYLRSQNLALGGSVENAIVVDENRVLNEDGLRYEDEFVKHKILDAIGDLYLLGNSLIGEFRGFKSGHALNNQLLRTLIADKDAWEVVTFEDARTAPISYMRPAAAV
test protocol: IC50 assay, LpxC enzyme from P. aeruginosa (BioTrove RapidFire mass spectrometry)
Assay type: biochemical
condition context: P. aeruginosa LpxC enzyme 0.1 nM, 25° C., 1 hour, pH 8.0; read-out: PA: IC50
readout kind: pIC50
In plain terms, pIC50 is the concentration in mol/L turned into minus its base-10 logarithm.

Please look at this compound and report its pIC50: CC(CCn1cc(-c2ccc3cc[nH]c3n2)cn1)(C(=O)NO)S(C)(=O)=O (centres unmarked)
8.43

Item CC(CCn1cc(-c2ccc(C(F)(F)F)cn2)cn1)(C(=O)NO)S(C)(=O)=O (centres unmarked) : provide pIC50
7.43

Supply reported pIC50 belonging to this compound: CC(CCn1cc(-c2ccc3c(c2)OCCO3)cn1)(C(=O)NO)S(C)(=O)=O (centres unmarked)
8.17

Input Cc1cc(-c2cnn(CCC(C)(C(=O)NO)S(C)(=O)=O)c2)ccc1O (centres unmarked) , output reported pIC50.
7.35

Please indicate pIC50 recorded for CCc1ccccc1SCc1cn(CCC(C)(C(=O)NO)S(C)(=O)=O)nn1 (centres unmarked)
7.29

Name the recorded pIC50 of the item CC(CCn1cc(-c2ccc(F)c(C#N)c2)cn1)(C(=O)NO)S(C)(=O)=O (centres unmarked) in your answer.
7.94

Let me know recorded pIC50 for CC(CCn1cc(-c2cccc(OC(F)(F)F)c2)cn1)(C(=O)NO)S(C)(=O)=O (centres unmarked) , thanks.
9.19

Assign pIC50 to the following record: CC(CCn1cc(CSc2ccc(Cl)cc2)nn1)(C(=O)NO)S(C)(=O)=O (centres unmarked)
8.05

State, in one line, measured pIC50 of CCc1nc2ccc(-c3cnn(CCC(C)(C(=O)NO)S(C)(=O)=O)c3)cc2s1 (centres unmarked)
8.59

Determine from records and report pIC50 for CC(CCn1cc(-c2ccc(Cl)cn2)cn1)(C(=O)NO)S(C)(=O)=O (centres unmarked)
8.16

For CC(CCn1cc(-c2ccc3[nH]c(C(N)=O)cc3c2)cn1)(C(=O)NO)S(C)(=O)=O (centres unmarked) , write its pIC50.
7.20

For the compound Cc1nc2ccc(-c3cnn(CCC(C)(C(=O)NO)S(C)(=O)=O)c3)cc2s1 (centres unmarked) , report pIC50.
8.21

Tell us which pIC50 value is on record for Cc1cc(O)ccc1-c1cnn(CCC(C)(C(=O)NO)S(C)(=O)=O)c1 (centres unmarked)
7.04

Provide measured pIC50 value, entry: CC(CCn1cc(-c2cccc(-c3ccno3)c2)cn1)(C(=O)NO)S(C)(=O)=O (centres unmarked)
8.61

Write down pIC50 measured for item CC(C)COc1ccc(-c2cnn(CCC(C)(C(=O)NO)S(C)(=O)=O)c2)cn1 (centres unmarked)
8.68

# return recorded pIC50 for input Cc1ccccc1-c1cnn(CCC(C)(C(=O)NO)S(C)(=O)=O)c1 (centres unmarked)
7.95
